Origin of measurements: the supplement of paper PMC8728848

molecular target: Man(a1-2)Man(a1-3)[Man(a1-2)Man(a1-6)]Man; assay: glycan array binding signal (z-score within array); higher = stronger binding; conditions: glycan notation: IUPAC condensed, linker removed
Only a selection was taken, and the strongest signals are over-represented in it overall.
Each record here notes measured glycan array binding signal (z-score).
I'd appreciate a reply containing only the number, no unit.

>  <binder>
Dectin-1 CTLD (Mus musculus), Q6QLQ4 (protein) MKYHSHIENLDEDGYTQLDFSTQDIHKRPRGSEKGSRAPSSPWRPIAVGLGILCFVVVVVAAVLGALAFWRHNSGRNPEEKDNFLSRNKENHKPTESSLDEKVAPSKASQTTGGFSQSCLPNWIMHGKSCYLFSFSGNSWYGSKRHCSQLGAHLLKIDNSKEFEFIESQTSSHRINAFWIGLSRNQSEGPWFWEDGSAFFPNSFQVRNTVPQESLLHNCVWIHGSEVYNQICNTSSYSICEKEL

>  <glycan array binding signal (z-score)>
-0.241

$$$$

Now take the following binder into account.
What measured glycan array binding signal (z-score) goes with Si Bti9 1b-HA (Solanum lycopersicum) (protein) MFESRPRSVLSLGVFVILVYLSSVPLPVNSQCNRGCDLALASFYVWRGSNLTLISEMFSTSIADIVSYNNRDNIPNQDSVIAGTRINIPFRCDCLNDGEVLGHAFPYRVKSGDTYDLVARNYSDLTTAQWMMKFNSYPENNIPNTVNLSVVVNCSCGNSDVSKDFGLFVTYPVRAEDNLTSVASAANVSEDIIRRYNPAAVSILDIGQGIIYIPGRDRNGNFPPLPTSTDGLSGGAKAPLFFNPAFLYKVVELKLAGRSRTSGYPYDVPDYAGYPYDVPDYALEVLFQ ?
-0.589
